- assay.protocol: physchem
- experimental.context: fat/water partition (phases not further specified)
recorded.endpoint: logP
Respond numerically, and do not add a unit to the figure.

Provide logP value for the following compound: CC(C)c1cccc(C(C)C)c1OC(=O)CC1(C[N+](C)(C)C)CCCCC1 [Compound 6]
1.54

* * *

- assay.protocol: physchem
Counter-ions that a name gives are not always drawn.
recorded.endpoint: logP
// return just the number, without any unit appended

CC(C)c1cc(I)cc(C(C)C)c1OC(=O)NCC1(CC(=O)O)CCCCC1; 3.52
CC(C)c1cccc(C(C)C)c1OC(=O)NCC1(CC(=O)O)CCCCC1; 2.38
CC(C)c1cccc(C(C)C)c1OC(=O)CC1(CN)CCCCC1.Cl [Compound 1, hydrochloride]; 1.1
CC(C)c1cccc(C(C)C)c1OC(=O)CC1(CN(C)C)CCCCC1 [Compound 5, hydrochloride]; 1.37

With those in mind, consider the next compound.
Quote logP reported for CC(C)c1cc(I)cc(C(C)C)c1OC(=O)CC1(CN)CCCCC1.Cl [Compound 2, hydrochloride] please.
1.66

* * *

- assay.protocol: water solubility experiments
- Assay type: physicochemical
log10(solubility) values for the compounds below.
Hi team, quick reminder: these entries are log10 of solubility (µg/mL).

Example compounds with recorded log10(solubility):
CC(C)c1cccc(C(C)C)c1OC(=O)CC1(CN)CCCCC1.Cl [Compound 1]; 4.26
CC(C)c1cc(I)cc(C(C)C)c1OC(=O)CC1(CN)CCCCC1.Cl [Compound 2]; 4.11

// Input: CC(C)c1cc(I)cc(C(C)C)c1OC(=O)NCC1(CC(=O)O)CCCCC1 [Compound 4] . Output its log10(solubility) only.
1.60

Consider the compound CC(C)c1cccc(C(C)C)c1OC(=O)NCC1(CC(=O)O)CCCCC1 [Compound 3] . State its measured log10(solubility).
1.90

Identify log10(solubility) associated with the compound CC(C)c1cccc(C(C)C)c1OC(=O)CC1(C[N+](C)(C)C)CCCCC1 [Compound 6]
2.95
